- Tgt: viral kinase pUL-97 (Human cytomegalovirus, UniProt P16788)
- Construct: The pUL-97 gene was cloned into a baculovirus vector; GST (glutathione S-transferase) (N); made in house; host or cells: Sf9 insect cells, baculovirus
- Sequence (P16788 whole entry): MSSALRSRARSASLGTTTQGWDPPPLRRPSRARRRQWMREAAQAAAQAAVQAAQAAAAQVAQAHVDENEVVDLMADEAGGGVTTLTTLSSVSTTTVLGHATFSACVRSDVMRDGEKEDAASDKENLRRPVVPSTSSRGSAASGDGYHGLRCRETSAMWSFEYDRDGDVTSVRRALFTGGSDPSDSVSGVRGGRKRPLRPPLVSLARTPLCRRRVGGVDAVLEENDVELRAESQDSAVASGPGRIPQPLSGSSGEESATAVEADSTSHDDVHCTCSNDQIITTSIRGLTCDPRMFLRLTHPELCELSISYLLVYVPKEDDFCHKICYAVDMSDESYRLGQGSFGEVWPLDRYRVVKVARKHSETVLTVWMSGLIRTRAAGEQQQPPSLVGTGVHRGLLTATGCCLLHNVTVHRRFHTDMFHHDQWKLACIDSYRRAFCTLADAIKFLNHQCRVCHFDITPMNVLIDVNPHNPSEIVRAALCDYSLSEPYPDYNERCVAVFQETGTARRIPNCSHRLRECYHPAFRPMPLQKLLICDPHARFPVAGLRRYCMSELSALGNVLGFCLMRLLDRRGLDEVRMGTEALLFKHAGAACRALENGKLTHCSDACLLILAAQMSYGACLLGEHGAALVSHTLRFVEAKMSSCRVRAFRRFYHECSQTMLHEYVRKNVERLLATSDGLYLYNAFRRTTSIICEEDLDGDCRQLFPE
- Test summary: UL97 kinase assay on Immobilon plate
- Format: biochemical
- Stated conditions: inhibition of UL 97 kinase activity; class by IC50 / % inhibition at 10 or 100 μM; read-out: Activity Class [A, B, C]
- Description: UL97 Kinase-Assay on Immobilon Plate The effect of pyrazine derivatives of this invention was tested on the activity of the viral kinase pUL-97. […] Measuring Incorporation of Radioactivity: The Immobilon plate (Millipore) was rinsed with 50 μl methanol/well. […] After addition of 50 μl scintillation cocktail (Roth, Germany) per well incorporation of radioactivity was measured using a Betareader (Wallac) and enzymatic activity calculated.
pIC50: −log10 of the molar value.
Entries and their measured pIC50 follow.

Take a look at these entries with their results.
>  <Compound>
Clc1ccc(-c2cncc(NCc3ccco3)n2)cc1

>  <pIC50>
> 6.00

$$$$
>  <Compound>
Nc1ncc(-c2ccc3ccccc3c2)nc1N1CCN(c2ccncc2)CC1

>  <pIC50>
> 6.00

$$$$
>  <Compound>
CC(=O)c1ccc(N2CCN(c3cncc(-c4cccc(C)c4C)n3)CC2)cc1

>  <pIC50>
4.00 to 5.00

$$$$
>  <Compound>
Fc1ccccc1N1CCN(c2cncc(-c3ccsc3)n2)CC1

>  <pIC50>
5.00 to 6.00

$$$$
>  <Compound>
O=C(NCCO)c1cccc(-c2cncc(N3CCN(c4ccncc4)CC3)n2)c1

>  <pIC50>
4.00 to 5.00

$$$$
>  <Compound>
Fc1ccccc1N1CCN(c2cncc(-c3ccoc3)n2)CC1

>  <pIC50>
5.00 to 6.00

$$$$

-- ask For COc1ccc(N2CCN(c3cncc(-c4cccc5ccccc45)n3)CC2)cc1OC , what is its reported pIC50?
-- reply 4.00 to 5.00

-- ask Field entry: FC(F)(F)c1ccc(-c2cncc(N3CCN(c4cccc(Cl)c4)CC3)n2)cc1
-- reply 4.00 to 5.00

-- ask Field entry: Cc1ccc(N2CCN(c3cncc(-c4ccc(C(F)(F)F)cc4)n3)CC2)cc1
-- reply 5.00 to 6.00

---

- Tgt: viral kinase pUL-97 (Human cytomegalovirus, UniProt P16788)
- Construct: The pUL-97 gene was cloned into a baculovirus vector; GST (glutathione S-transferase) (N); made in house; host or cells: Sf9 insect cells, baculovirus
- Test summary: UL97 kinase assay on Immobilon plate
- Assay type: biochemical
- Stated conditions: inhibition of UL 97 kinase activity; class by IC50 / % inhibition at 10 μM or 100 μM; read-out: Activity Class [A, B, C]
pIC50: −log10 of the molar value.
Entries and their measured pIC50 follow.

>  <Molecule>
CC(=O)c1cccc(-c2cncc(N3CCN(c4ccc(F)cc4F)CC3)n2)c1

>  <Tgt>
viral kinase pUL-97 (Human cytomegalovirus, UniProt P16788)

>  <pIC50>
4.00 to 5.00

$$$$
>  <Molecule>
CN(C)c1ccc(-c2cncc(N3CCN(c4ccc(Cl)c(Cl)c4)CC3)n2)cc1

>  <Tgt>
viral kinase pUL-97 (Human cytomegalovirus, UniProt P16788)

>  <pIC50>
4.00 to 5.00

$$$$
>  <Molecule>
Clc1ccc(N2CCN(c3cncc(-c4cccc5ccccc45)n3)CC2)cc1Cl

>  <Tgt>
viral kinase pUL-97 (Human cytomegalovirus, UniProt P16788)

>  <pIC50>
4.00 to 5.00

$$$$
>  <Molecule>
Fc1ccc(N2CCN(c3cncc(-c4ccc(C(F)(F)F)cc4)n3)CC2)c(F)c1

>  <Tgt>
viral kinase pUL-97 (Human cytomegalovirus, UniProt P16788)

>  <pIC50>
5.00 to 6.00

$$$$
>  <Molecule>
c1ccc(C2CCN(c3cncc(-c4csc5ccccc45)n3)CC2)cc1

>  <Tgt>
viral kinase pUL-97 (Human cytomegalovirus, UniProt P16788)

>  <pIC50>
4.00 to 5.00

$$$$
>  <Molecule>
COc1cccc(N2CCN(c3cncc(-c4ccc5ccccc5c4)n3)CC2)c1

>  <Tgt>
viral kinase pUL-97 (Human cytomegalovirus, UniProt P16788)

>  <pIC50>
5.00 to 6.00

$$$$
>  <Molecule>
OCc1ccc(-c2cncc(N3CCN(c4ccncc4)CC3)n2)cc1

>  <Tgt>
viral kinase pUL-97 (Human cytomegalovirus, UniProt P16788)

>  <pIC50>
5.00 to 6.00

$$$$
>  <Molecule>
CN(C)c1ccc(-c2cncc(N3CCN(c4cccc(C(F)(F)F)c4)CC3)n2)cc1

>  <Tgt>
viral kinase pUL-97 (Human cytomegalovirus, UniProt P16788)

>  <pIC50>
4.00 to 5.00

$$$$

-- ask For CC(=O)c1ccc(-c2cncc(N3CCN(c4ccc(C)cc4C)CC3)n2)s1 , what is its reported pIC50?
-- reply 4.00 to 5.00

-- ask Field entry: Cc1ccc(-c2cncc(N3CCN(c4cnccn4)CC3)n2)cc1
-- reply 5.00 to 6.00

-- ask Field entry: Clc1ccc(N2CCN(c3cncc(-c4csc5ccccc45)n3)CC2)cc1
-- reply 5.00 to 6.00
